- testProtocol: Binding affinity for rat brain opioid receptor mu 1
Non-standard residues stand in square brackets, D forms with d. Residues, ends and D or L forms follow the SMILES beside them. Dmt = Cc1cc(O)cc(C)c1C[C@H](N)C(=O)O; Tic = O=C(O)[C@@H]1Cc2ccccc2CN1
readoutName: pKi
Give bare numbers, as −log10 of the molar value.

Take a look at these entries with their results.
CNC(=O)[C@@H](N)Cc1c(C)cc(O)cc1C; 8.13
Cc1cc(O)cc(C)c1C[C@H](N)C(=O)NCCN; 7.97
CCCNC(=O)[C@@H](N)Cc1c(C)cc(O)cc1C; 7.77

Dear reader, for each entry below, please note its pKi.
1. Cc1cc(O)cc(C)c1C[C@H](N)C(=O)NC1CCCCC1
2. Cc1cc(O)cc(C)c1C[C@H](N)C(=O)NCCC(=O)O
3. Cc1cc(O)cc(C)c1C[C@H](N)C(=O)NC(C)C
4. Cc1cc(O)cc(C)c1C[C@H](N)C(=O)NCCO
5. Cc1cc(O)cc(C)c1C[C@H](N)C(=O)NCC(=O)O
6. Cc1cc(O)cc(C)c1C[C@H](N)C(=O)N1Cc2ccccc2C[C@H]1C(=O)O (H-[Dmt]-[Tic]-OH)
7. Cc1cc(O)cc(C)c1C[C@H](N)C(=O)Nc1cccc2ccccc12
8. Cc1cc(O)cc(C)c1C[C@H](N)C(=O)NC1C2CC3CC(C2)CC1C3 (some centres not stated)

1. 6.94
2. 6.48
3. 7.65
4. 7.79
5. 5.57
6. 5.49
7. 6.02
8. 6.13

Dear reader, for each entry below, please note its pKi.
1. Cc1cc(O)cc(C)c1C[C@H](N)C(=O)NCN
2. Cc1cc(O)cc(C)c1C[C@H](N)C(=O)Nc1ccccc1
3. CONC(=O)[C@@H](N)Cc1c(C)cc(O)cc1C
4. Cc1cc(O)cc(C)c1C[C@H](N)C(=O)NC12CC3CC(CC(C3)C1)C2
5. Cc1cc(O)cc(C)c1C[C@H](N)C(=O)NC(C)(C)C

1. 6.74
2. 5.76
3. 6.76
4. 6.12
5. 7.44

Endpoint output: pKi of CCNC(=O)[C@@H](N)Cc1c(C)cc(O)cc1C . Value?
7.81

----------
- testProtocol: Binding affinity for rat brain opioid receptor delta 1
Field: pKi. Provide a value for each of the compounds that follow.
Answers are plain numbers, as −log10 of the molar value.

Take a look at these entries with their results.
Cc1cc(O)cc(C)c1C[C@H](N)C(=O)NC(C)(C)C; 6.27
Cc1cc(O)cc(C)c1C[C@H](N)C(=O)NC12CC3CC(CC(C3)C1)C2; 6.68
Cc1cc(O)cc(C)c1C[C@H](N)C(=O)NCCC(=O)O; 6.48
Cc1cc(O)cc(C)c1C[C@H](N)C(=O)NO; 5.02

Dear reader, for each entry below, please note its pKi.
1. CNC(=O)[C@@H](N)Cc1c(C)cc(O)cc1C
2. Cc1cc(O)cc(C)c1C[C@H](N)C(=O)NCCO
3. Cc1cc(O)cc(C)c1C[C@H](N)C(=O)NCC(=O)O
4. CCCNC(=O)[C@@H](N)Cc1c(C)cc(O)cc1C
5. Cc1cc(O)cc(C)c1C[C@H](N)C(=O)NCN
6. Cc1cc(O)cc(C)c1C[C@H](N)C(=O)Nc1ccccc1

[6.34, 6.34, 5.94, 6.78, 5.62, 6.92]

Dear reader, for each entry below, please note its pKi.
1. CONC(=O)[C@@H](N)Cc1c(C)cc(O)cc1C
2. Cc1cc(O)cc(C)c1C[C@H](N)C(=O)O
3. Cc1cc(O)cc(C)c1C[C@H](N)C(=O)NCCN
4. Cc1cc(O)cc(C)c1C[C@H](N)C(=O)NC1C2CC3CC(C2)CC1C3 (some centres undefined)
5. Cc1cc(O)cc(C)c1C[C@H](N)C(=O)NC(C)C

5.34
4.33
5.44
6.76
6.31
